biological target: Human recombinant Acetyl-CoA Carboxylase 2 (ACC2) (Homo sapiens); test: Assay Y: ACC2 inhibition, inorganic phosphate (Malachite Green); type: biochemical; conditions: Assay Y: room temperature, 3 hr, 15 min preincubation
Sequence (O00763 whole entry): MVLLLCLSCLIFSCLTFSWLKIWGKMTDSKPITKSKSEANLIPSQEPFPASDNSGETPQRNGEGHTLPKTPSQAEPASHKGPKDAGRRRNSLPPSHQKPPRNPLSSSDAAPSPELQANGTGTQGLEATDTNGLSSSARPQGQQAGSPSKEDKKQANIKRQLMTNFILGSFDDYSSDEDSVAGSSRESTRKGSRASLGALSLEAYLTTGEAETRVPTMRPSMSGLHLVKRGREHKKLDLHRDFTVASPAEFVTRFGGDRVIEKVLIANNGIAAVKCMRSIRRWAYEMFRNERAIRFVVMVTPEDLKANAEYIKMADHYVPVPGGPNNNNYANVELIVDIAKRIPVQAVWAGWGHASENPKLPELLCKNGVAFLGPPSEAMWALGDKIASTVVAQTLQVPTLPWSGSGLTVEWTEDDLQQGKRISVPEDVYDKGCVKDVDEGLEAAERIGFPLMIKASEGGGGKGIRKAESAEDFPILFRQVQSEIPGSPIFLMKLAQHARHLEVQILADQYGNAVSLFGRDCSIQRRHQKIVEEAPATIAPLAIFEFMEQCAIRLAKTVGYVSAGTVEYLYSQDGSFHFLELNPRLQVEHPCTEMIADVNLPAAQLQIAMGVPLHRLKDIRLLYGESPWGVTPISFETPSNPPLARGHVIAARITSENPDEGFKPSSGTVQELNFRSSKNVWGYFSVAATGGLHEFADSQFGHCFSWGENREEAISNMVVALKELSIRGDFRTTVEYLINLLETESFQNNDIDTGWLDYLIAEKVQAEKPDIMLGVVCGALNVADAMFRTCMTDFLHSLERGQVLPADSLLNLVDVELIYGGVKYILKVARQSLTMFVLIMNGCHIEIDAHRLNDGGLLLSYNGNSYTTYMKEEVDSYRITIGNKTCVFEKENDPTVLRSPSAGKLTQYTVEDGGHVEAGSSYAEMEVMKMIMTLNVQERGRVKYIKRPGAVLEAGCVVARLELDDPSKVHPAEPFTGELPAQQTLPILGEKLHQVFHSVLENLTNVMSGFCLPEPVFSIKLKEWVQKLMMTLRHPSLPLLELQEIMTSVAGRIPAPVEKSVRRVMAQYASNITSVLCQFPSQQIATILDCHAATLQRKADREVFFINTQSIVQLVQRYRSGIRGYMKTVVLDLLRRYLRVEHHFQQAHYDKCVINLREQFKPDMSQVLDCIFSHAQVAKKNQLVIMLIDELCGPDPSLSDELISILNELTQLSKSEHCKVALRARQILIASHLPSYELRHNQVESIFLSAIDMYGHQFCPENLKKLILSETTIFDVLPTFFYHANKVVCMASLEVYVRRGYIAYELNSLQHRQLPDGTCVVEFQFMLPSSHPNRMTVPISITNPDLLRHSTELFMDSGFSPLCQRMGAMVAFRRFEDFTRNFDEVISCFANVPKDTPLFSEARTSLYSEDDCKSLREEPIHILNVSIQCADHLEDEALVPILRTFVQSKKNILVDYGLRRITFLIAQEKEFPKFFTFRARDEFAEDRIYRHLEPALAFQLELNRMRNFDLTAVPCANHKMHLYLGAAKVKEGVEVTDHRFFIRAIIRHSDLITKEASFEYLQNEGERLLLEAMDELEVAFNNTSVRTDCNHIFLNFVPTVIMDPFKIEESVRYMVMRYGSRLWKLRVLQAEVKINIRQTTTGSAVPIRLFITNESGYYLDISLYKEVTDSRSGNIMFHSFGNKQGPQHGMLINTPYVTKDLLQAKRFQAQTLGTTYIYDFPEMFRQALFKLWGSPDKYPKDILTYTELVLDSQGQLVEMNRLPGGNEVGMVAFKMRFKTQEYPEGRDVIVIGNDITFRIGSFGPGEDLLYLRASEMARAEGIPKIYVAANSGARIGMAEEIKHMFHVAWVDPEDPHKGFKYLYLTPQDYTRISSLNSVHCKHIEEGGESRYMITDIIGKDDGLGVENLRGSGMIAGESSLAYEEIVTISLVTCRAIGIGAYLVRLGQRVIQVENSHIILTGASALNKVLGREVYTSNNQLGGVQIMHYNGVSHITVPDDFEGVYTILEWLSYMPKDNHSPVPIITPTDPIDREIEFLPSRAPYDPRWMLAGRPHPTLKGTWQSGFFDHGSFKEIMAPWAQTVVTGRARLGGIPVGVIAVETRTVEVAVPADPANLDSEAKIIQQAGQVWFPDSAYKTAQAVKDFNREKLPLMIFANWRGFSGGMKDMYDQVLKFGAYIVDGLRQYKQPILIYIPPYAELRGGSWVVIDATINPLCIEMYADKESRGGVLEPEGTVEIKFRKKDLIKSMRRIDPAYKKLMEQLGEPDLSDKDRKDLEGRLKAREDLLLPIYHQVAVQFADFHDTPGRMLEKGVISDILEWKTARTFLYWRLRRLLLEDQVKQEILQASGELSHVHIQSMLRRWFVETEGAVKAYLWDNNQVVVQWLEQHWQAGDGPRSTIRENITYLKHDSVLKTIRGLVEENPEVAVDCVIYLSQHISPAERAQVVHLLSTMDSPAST
pIC50: −log10 of the molar value.
Label Condition met when pIC50 is at or above 6; otherwise label Condition not met.

Reference set, count: 9
molecule | label.value
COCCOC(=O)NC[C@H]1CC[C@H](CNC(=O)c2cc(-c3ccncc3)nc3ccccc23)CC1 | Condition not met
CN(C)CCN1CCN(c2cc(C(=O)NC[C@H]3CC[C@H](CNC(=O)OC(C)(C)C)CC3)c3ccccc3n2)CC1 | Condition met
CC(C)(C)OC(=O)NC[C@H]1CC[C@H](CNC(=O)c2cc(N3CCC(CCO)CC3)nc3ccccc23)CC1 | Condition met
CC(=O)Nc1nc(C)sc1S(=O)(=O)NC[C@H]1CC[C@H](CNC(=O)OC(C)(C)C)CC1 | Condition not met
CC(C)(C)OC(=O)NC[C@H]1CC[C@H](CNC(=O)c2cc(-c3ccc(C#N)cc3)nc3ccccc23)CC1 | Condition met
CN(C[C@H]1CC[C@H](CNC(=O)OC(C)(C)C)CC1)S(=O)(=O)c1ccc2ccccc2c1 | Condition not met
COC(=O)NCc1cccc(-c2cc(C(=O)NC[C@H]3CC[C@H](CNC(=O)OC(C)(C)C)CC3)c3ccccc3n2)c1 | Condition met
CN1CCN(CCOc2cc(C(=O)NC[C@H]3CC[C@H](CNC(=O)OC(C)(C)C)CC3)c3ccccc3n2)CC1 | Condition not met
CC(C)(C)OC(=O)NC[C@H]1CC[C@H](CNC(=O)c2cc(-c3ccccc3)nc3ccccc23)CC1 | Condition met

--- query ---
I'd appreciate it if you could say whether CCOC(=O)NC[C@H]1CC[C@H](CNC(=O)c2cc(-c3ccc(F)cc3)nc3ccccc23)CC1 has pIC50 at least equal to 6.
Condition not met

----------
biological target: Human recombinant Acetyl-CoA Carboxylase 2 (ACC2) (Homo sapiens); assay: Assay Y: ACC2 inhibition, inorganic phosphate (Malachite Green); assay type: biochemical; conditions: Assay Y: room temperature, 3 hr, 15 min preincubation
quantity.name: pIC50
Give bare numbers, as −log10 of the molar value.

Example entries begin here.
compound | pIC50
CCOC(=O)NC[C@H]1CC[C@H](CNC(=O)c2cc(-c3ccc(C(=O)N(C)C)cc3)nc3ccccc23)CC1 [Example 18] | 5.74
CN(C)CCOc1ccc(-c2cc(C(=O)NC[C@H]3CC[C@H](CNC(=O)OC(C)(C)C)CC3)c3ccccc3n2)cn1 [Example 184] | 7.40
COc1ccc(-c2cc(C(=O)NC[C@H]3CC[C@H](CNC(=O)OC(C)(C)C)CC3)ccn2)cn1 [Example 49] | 5.01
CC(C)(C)OC(=O)NC[C@H]1CC[C@H](CNC(=O)c2cc(-c3cc[n+]([O-])cc3)nc3ccccc23)CC1 [Example 94] | 6.03
CC(C)c1ccc(S(=O)(=O)NC[C@H]2CC[C@H](CNC(=O)OC(C)(C)C)CC2)cc1 [Example 68] | 5.58
CC(C)(C)OC(=O)NC[C@H]1CC[C@H](CNC(=O)c2cc(-c3ccc(NCCO)nc3)nc3ccccc23)CC1 [Example 143] | 7.52
CC(C)(C)OC(=O)NC[C@H]1CC[C@H](CNC(=O)c2ccnc(-c3cc4ccccc4s3)c2)CC1 [Example 45] | 5.36
CNS(=O)(=O)c1ccc(-c2cc(C(=O)NC[C@H]3CC[C@H](CNC(=O)OC4CCOCC4)CC3)c3ccccc3n2)cc1 [Example 136] | 6.21
Cc1cc(C(=O)NC[C@H]2CC[C@H](CNC(=O)OC(C)(C)C)CC2)cc(-c2ccc(CN)cc2)n1 [Example 38] | 5.39
COC[C@H](C)OC(=O)NC[C@H]1CC[C@H](CNC(=O)c2cc(-c3ccc(N4CCN(C)CC4)nc3)nc3ccccc23)CC1 (stereo in doubt) [Example 112] | 6.42

Hey, quick one: what's pIC50 for each of these?
1. Cc1noc(C)c1-c1cc(C(=O)NC[C@H]2CC[C@H](CNC(=O)OC(C)(C)C)CC2)c2ccccc2n1 [Example 15]
2. CCN(C[C@H]1CC[C@H](CNC(=O)OC(C)(C)C)CC1)S(=O)(=O)c1ccc(-c2csc(C)n2)s1 [Example 90]

1: 5.54; 2: 5.70

Hey, quick one: what's pIC50 for each of these?
1. CC(=O)NCc1ccc(-c2cc(C(=O)NC[C@H]3CC[C@H](CNC(=O)OC(C)(C)C)CC3)c3ccccc3n2)cc1 [Example 103]
2. CC(C)(C)OC(=O)NC[C@H]1CC[C@H](CNC(=O)c2cc(-c3ccc(C(F)(F)F)cc3)nc3ccccc23)CC1 [Example 12]

7.40
6.25
